# Ki per entry for Tyrosine-protein phosphatase non-receptor type 1 (Homo sapiens, UniProt P18031)

Check out these entries, answers already filled in.
COC(=O)c1c(O)cccc1OCCCCNC(=O)[C@H](Cc1ccc(NC(=O)C(=O)O)cc1)NC(C)=O : 6.1 µM
COC(=O)c1c(O)cccc1OCCCCNC(=O)[C@H](Cc1ccc(NS(=O)(=O)C(F)(F)F)cc1)NC(C)=O : > 200 µM
COC(=O)c1c(O)cccc1OCCCCNC(=O)[C@H](Cc1ccc(NC(=O)CO)cc1)NC(C)=O : > 200 µM
COC(=O)c1c(O)cccc1OCCCCNC(=O)[C@H](Cc1ccc(NC(=O)C(F)(F)F)cc1)NC(C)=O : > 200 µM

The molecule COC(=O)c1c(O)cccc1OCCCCNC(=O)[C@H](Cc1ccc(/C=C\C(=O)O)cc1)NC(=O)OC(C)(C)C on Tyrosine-protein phosphatase non-receptor type 1 (Homo sapiens, UniProt P18031): Ki was > 200 µM
